B1: TPR 5TU (parent)
chain: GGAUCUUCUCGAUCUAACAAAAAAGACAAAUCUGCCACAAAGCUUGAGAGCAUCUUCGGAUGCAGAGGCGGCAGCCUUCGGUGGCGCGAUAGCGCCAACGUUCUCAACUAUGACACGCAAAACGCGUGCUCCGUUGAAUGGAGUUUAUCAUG

- Variants of: B1
- protocolText: polymerase ribozyme fitness, log enrichment relative to wild type (log ratio); higher = more active; in vitro selection for triplet polymerase activity
Variants at the floor of the assay were thinned out.
Please mark fulfilled if the recorded polymerase ribozyme fitness (log ratio) is equal to or greater than -2, and not fulfilled if it falls below.

Recorded results for 5 variants are shown here.
[
  {
    "mutationAnnotation": "A52U C93U A119U G124U",
    "cat": "not fulfilled"
  },
  {
    "mutationAnnotation": "A3U A47C C57A",
    "cat": "fulfilled"
  },
  {
    "mutationAnnotation": "G50C C54U G86A C108U",
    "cat": "not fulfilled"
  },
  {
    "mutationAnnotation": "A47G U56A U90C G92U U139C",
    "cat": "not fulfilled"
  },
  {
    "mutationAnnotation": "A40C A97C",
    "cat": "fulfilled"
  }
]

Is polymerase ribozyme fitness (log ratio) at least -2? Consider A17U U56C G74U C76U G84U C125G A138C
not fulfilled

Is polymerase ribozyme fitness (log ratio) at least -2? Consider C8G C18G C57G G83U C118U G128A
not fulfilled

Is polymerase ribozyme fitness (log ratio) at least -2? Consider A47C U53C C57A C72G A73C U78C C79U C96G C129A A150G
not fulfilled
